Origin of values: PubChem BioAssay AID2124

Test Method Notes: cell-permeable autofluorescent compounds in GFP channel, dose response, artefact control, imaging, high-content imaging (AID 2124);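 note: cells exposed to compound for 48 hours before fixing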
Condition Summary: cells, GFP-channel autofluorescence, high-content imaging; cell count; at 10 µM
Results filed as inconclusive are left out.
Rule: True for cell count not less than 3000 cells, False for anything less.

Here are 5 molecules together with their reported answers.
Molecule	Assigned Class
Cc1ccc(N=C2NC(=O)/C(=C/c3cn(C)c4ccccc34)S2)cc1C	False
COc1cccc(C2C3CN(C)CC=C3C(C#N)=C(N)C2(C#N)C#N)c1OC (stereo not given)	False
COc1cccc(S(=O)(=O)NCc2ccc(C(=O)Nc3ccc(Cl)c(Cl)c3)cc2)c1	False
CN(C)c1ccc(/C=C/C(O)=C2/C(=O)N(C)C3(C)CC2c2ccccc2O3)cc1 (stereo not given)	False
O=C(OCCN1C(=O)c2cccc3c(N4CCOCC4)ccc(c23)C1=O)c1ccc(Cl)cc1Cl	False

Enquiry: State whether the measured cell count reaches 3000 cells, counting equality as reaching it, for N#C/C(=C/c1ccc(N2CCCCC2)o1)C(=O)NCCc1c[nH]c2ccccc12
Return: True

Enquiry: Does the molecule CN(C)c1ccc(/C=N/NC(=O)CN(c2ccccc2Cl)S(C)(=O)=O)cc1Br have recorded cell count that is 3000 cells or more?
Return: True
